Exercise: for every item that follows, state its recorded IC50.
Test system: HL-60
Experiment: Cytotoxicity against human HL60 cells by MTT assay
Type: functional, cell-based
Output spec: scalar in µM, unitless text.

Lookup: Suppose we examine the compound C=C1C(=O)[C@]23[C@H](OC(=O)CN)[C@@H]1CC[C@H]2[C@@]12CO[C@]3(O)[C@@H](O)[C@@H]1C(C)(C)CC[C@@H]2OC(C)=O ; what IC50 value has been reported?
Found: 12.3

Lookup: Given the compound C=C1C(=O)[C@]23[C@H](OC(=O)CNC(=O)CCC(=O)O)[C@@H]1CC[C@H]2[C@@]12CO[C@]3(O)[C@@H](O)[C@@H]1C(C)(C)CCC2=O , what is its reported IC50?
Found: 7.76

Lookup: What does the record list as IC50 for C=C1C(=O)[C@]23[C@H](OC(=O)C(Cc4ccccc4)NC(=O)/C=C/C(=O)O)[C@@H]1CC[C@H]2[C@@]12CO[C@]3(O)[C@@H](O)[C@@H]1C(C)(C)CCC2=O (stereo not given in full) ?
Found: 2.07

Lookup: What value of IC50 has been reported for the following compound? C=C1C(=O)[C@]23[C@H](OC(=O)CNC(=O)c4ccccc4C(=O)O)[C@@H]1CC[C@H]2[C@@]12CO[C@]3(O)[C@@H](O)[C@@H]1C(C)(C)CC[C@@H]2OS(=O)(=O)CCC
Found: 13.8

Lookup: Can you share its IC50? I mean this compound: C=C1C(=O)[C@]23[C@H](OC(=O)C(Cc4ccccc4)NC(=O)CCC(=O)O)[C@@H]1CC[C@H]2[C@@]12CO[C@]3(O)[C@@H](O)[C@@H]1C(C)(C)CCC2=O (stereo not given in full)
Found: 2.31

====

Tested on: SW480
Assay: Cytotoxicity against human SW480 cells by MTT assay
Format: functional, cell-based
Assignment: determine reported IC50 for the given compounds.
Return type: number; implicit unit µM.

Lookup: # query: IC50 of entry C=C1C(=O)[C@]23[C@H](O)[C@H]1CC[C@H]2[C@@]12CO[C@]3(O)[C@@H](O)[C@@H]1C(C)(C)CC[C@@H]2O
Found: 31.4

Lookup: What value of measured IC50 is listed for C=C1C(=O)[C@]23[C@H](OC(=O)C(Cc4ccccc4)NC(=O)CCCCC(=O)O)[C@@H]1CC[C@H]2[C@@]12CO[C@]3(O)[C@@H](O)[C@@H]1C(C)(C)CCC2=O (stereo not given in full) ?
Found: 7.3

Lookup: Could you share which IC50 value was measured for C=C1C(=O)[C@]23[C@H](OC(=O)CNC(=O)CCCCC(=O)O)[C@@H]1CC[C@H]2[C@@]12CO[C@]3(O)[C@@H](O)[C@@H]1C(C)(C)CC[C@@H]2OS(=O)(=O)CCC ?
Found: 11.2

Lookup: IC50 for C=C1C(=O)[C@]23[C@H](OC(=O)C(Cc4ccccc4)NC(=O)CCC(=O)O)[C@@H]1CC[C@H]2[C@@]12CO[C@]3(O)[C@@H](O)[C@@H]1C(C)(C)CCC2=O (stereo not given in full) ?
Found: 12.9

Lookup: Would you kindly share the measured IC50 for C=C1C(=O)[C@]23[C@H](OC(=O)CNC(=O)/C=C/C(=O)O)[C@@H]1CC[C@H]2[C@@]12CO[C@]3(O)[C@@H](O)[C@@H]1C(C)(C)CC[C@@H]2OS(=O)(=O)CCC ?
Found: 14.7

// data source = ChEMBL document CHEMBL1155921
